List of IC50, HCVpp neutralization values.
System: E1E2 of HCV isolate AMS.3a.21071213 (genotype 3a) (Hepatitis C virus genotype 3a)
Test Details: cell-based or functional assay
Give the value in mg/L but do not write mg/L after it.

Q. What measured IC50, HCVpp neutralization goes with AT12-007 (antibody, V domains shown) VH: QVQLEQSGAEVKKPGASVKVSCKVSGYTLTELSMHWVRQAPGKGLEWMGSFDPADGERLYAQKFQGRVIMSEDTSTDTAYMELSSLRSEDAAVYYCATAPRMTMFGVIMALDSWGQGTLVTVSS VL: DIQMTQSPSTLSASLGDRVTITCRASQNINKYLAWYQQKPGKAPKLLIYKASNLQSGVPSRFSGSGSGTDFILTISSLQPDDFATYYCQQYTTYSAWTFGQGTNVDIKR ?
A. 1.42

New cases:
Q. What measured IC50, HCVpp neutralization goes with AT12-009 (antibody, V domains shown) VH: SSVRVSCKASGDTFKTHAISWVRQAPGQGLEWVGGTVRQAPGDGLELLGGFVPILAPANDAQKFQGRVTITADGSTGPVYMDLSTLTSEDTAMYYCVTSLSEPIPRSCRGGRCYSGPFDAFGVWGQGTMVTVSS VL: ETMLTQSPVTLSVSPGERATLSCRASQSIGTNLAWYQQKPGQAPRLLIHGASTRATGVPVSFSGSGSGTEFTLTISSLQSEDFAVYYCQQYNNWPLTFGGGTKVDFKR ?
A. 0.14

Q. What measured IC50, HCVpp neutralization goes with AT13-021 (antibody, V domains shown) VH: QVQLVQSGAEVKKPGSSVKVSCKASGGTFNTHAFSWVRQAPGEGLEWMGGISPMSGTPNYAQKFQGRLTITADESTSTGYMELRSLTSEDTAVYYCARELIGYCTGGNCYSFGDFWGQGTLITVSS VL: EIVMTQSPATLSVSPGERATLSCRASQSVSSHLAWYQHKPGQAPRLLISGASTRAVGVPARFSGSGSGTEFTLTISSLQSEDFAVYYCHQYNTWPRGFGQGTKVDFKR ?
A. 0.25
